Test: Huh 7.5.1 ATPlite assay : This example demonstrates the EC50 and CC50 values against HCV according to the HCVcc-RLuc reporter assay described in Example 5 and the cytotoxicity using the Huh 7.5.1 ATPlite assay for compounds in accordance with an embodiment of the invention.
Settings: Huh-7.5.1
Value type: EC50 (µM)
Kindly provide the numeric value in µM only, without the unit symbol.

The molecule listed as CCc1ccccc1C1=NC(CN2CCC(C(=O)NCCCN3C[C@H](C)C[C@H](C)C3)CC2)C(C)O1 (stereo not given in full) shows EC50 equal to 0.14

Record Cc1cc(C)c(C2=NC(CN3CCC(C(=O)NCCCN4C[C@H](C)C[C@H](C)C4)CC3)C(C)O2)c(C)c1 (stereo not given in full) , field EC50: 0.19

Record summary for CC1OC(c2c(F)cccc2Cl)=NC1CN1CCC(C(=O)NCCCN2C[C@H](C)C[C@H](C)C2)CC1 (stereo not given in full) : reported EC50 = 0.334

Reported EC50 ( Cc1ccccc1C1=NC(CN2CCC(C(=O)NCCN3CCCCC3)CC2)C(C)O1 (stereo not given) ) = 1.2

Recorded result, CC1OC(c2ccc(F)cc2)=NC1CN1CCC(C(=O)NCCCN2C[C@H](C)C[C@H](C)C2)CC1 (stereo not given in full) , EC50: 0.053

Entry CC1CCCN(CCCNC(=O)C2CCN(Cc3oc(-c4cc(C(F)(F)F)cc(C(F)(F)F)c4)nc3C(F)(F)F)CC2)C1 (stereo not given) , EC50 reported as 0.341

Form: molecule = Cc1cccc(Cl)c1C1=NC(CN2CCC(C(=O)NCCCN3C[C@H](C)C[C@H](C)C3)CC2)C(C)O1 (stereo not given in full) ; EC50 = 0.014

Record COc1cccc(Br)c1C1=NC(CN2CCC(C(=O)NCCCN3C[C@H](C)C[C@H](C)C3)CC2)C(C)O1 (stereo not given in full) , field EC50: 0.213

Query Cc1ccccc1-c1nc(CN2CCC(C(=O)NCCCN3C[C@H](C)C[C@H](C)C3)CC2)c(C)s1 yields EC50 of 0.038

Recorded EC50 (molecule CC1OC(c2c(Cl)cccc2Cl)=NC1CN1CCC(C(=O)NCCCN2C[C@H](C)C[C@H](C)C2)CC1 (stereo not given in full) ): 0.221

The recorded EC50 for Cc1cc(C)cc(C2=NC(CN3CCC(C(=O)NCCCN4C[C@H](C)C[C@H](C)C4)CC3)C(C)O2)c1 (stereo not given in full) is 0.036

The molecule identified as CC1OC(c2ccccc2Cl)=NC1CN1CCC(C(=O)NCCCN2C[C@H](C)C[C@H](C)C2)CC1 (stereo not given in full) registered its EC50 at 0.086

COc1cc(OC)cc(C2=NC(CN3CCC(C(=O)NCCCN4CC(C)CC(C)C4)CC3)C(C)O2)c1 (stereo not given) yielded EC50 of 0.68

The value of EC50 measured for the molecule Cc1ccccc1-c1nc(CC2CCC[C@@H](C(=O)CCCCN3C[C@H](C)C[C@H](C)C3)C2)c(C)o1 (stereo not given in full) turned out to be 0.41

Reported EC50 for Cc1ccc(C2=NC(CN3CCC(C(=O)NCCCN4C[C@H](C)C[C@H](C)C4)CC3)C(C)O2)cc1 (stereo not given in full) was 0.1

* * *

Assay: Huh 7.5.1 ATPlite assay : This example demonstrates the EC50 and CC50 values against HCV according to the HCVcc-RLuc reporter assay described in Example 5 and the cytotoxicity using the Huh 7.5.1 ATPlite assay for compounds in accordance with an embodiment of the invention.
Conditions: Huh-7.5.1
Value type: EC50 (nM)
Enter your answer as a number in nM; do not include the unit.

Lookup result for Cc1ccccc1C1=NC(CN2CCC(C(=O)N3CCN(CCN(C)C)CC3)CC2)C(C)O1 (centres undefined) ; measured EC50: 6100

Per the records, this compound ( Cc1ccc(C2=NC(CN3CCC(C(=O)NCCCN4C[C@H](C)C[C@H](C)C4)CC3)C(C)O2)cc1C (some centres undefined) ) has EC50 equal to 98

The compound identified as CC1OC(c2c(F)cccc2F)=NC1CN1CCC(C(=O)NCCCN2C[C@H](C)C[C@H](C)C2)CC1 (some centres undefined) registered its EC50 at 624

Recorded EC50 (compound CC1OC(c2ccc(Cl)c(Cl)c2)=NC1CN1CCC(C(=O)NCCCN2C[C@H](C)C[C@H](C)C2)CC1 (some centres undefined) ): 13

* * *

For each of the molecules below, state its EC50.
Test: Huh 7.5.1 ATPlite assay : This example demonstrates the EC50 and CC50 values against HCV according to the HCVcc-RLuc reporter assay described in Example 5 and the cytotoxicity using the Huh 7.5.1 ATPlite assay for compounds in accordance with an embodiment of the invention.
Settings: Huh-7.5.1
Give the value in nM but do not write nM after it.

EC50 recorded for this molecule, Cc1ccccc1-c1nc(CN2CCC[C@@H](C(=O)NCCCN3C[C@H](C)C[C@H](C)C3)C2)c(C)o1 , is 304

Query Cc1ccccc1C1=NC(CN2CCC(C(=O)NCCCN3CCC(C)CC3)CC2)C(C)O1 (stereo not drawn) yields EC50 of 400

Please fill in: EC50 reported for C[C@@H]1C[C@H](C)CN(CCCNC(=O)C2CCN(Cc3oc(-c4cc(C(F)(F)F)cc(C(F)(F)F)c4)nc3C(F)(F)F)CC2)C1 = 153

According to the records, this molecule CC1OC(c2ccc(Cl)cc2)=NC1CN1CCC(C(=O)NCCCN2C[C@H](C)C[C@H](C)C2)CC1 (stereo partly drawn) displays EC50 of 110

Lookup result for Cc1cc(-c2nc(CN3CCC(C(=O)NCCCN4C[C@H](C)C[C@H](C)C4)CC3)co2)ccc1F ; measured EC50: 38

Input COc1cccc(F)c1C1=NC(CN2CCC(C(=O)NCCCN3C[C@H](C)C[C@H](C)C3)CC2)C(C)O1 (stereo partly drawn) . Output EC50: 455

Summary for this molecule, Cc1cccc(Cl)c1C1=NC(CN2CCC(C(=O)NCCCN3CCC(C)(C)CC3)CC2)C(C)O1 (stereo not drawn) : EC50 is 220

Value of EC50 reported for the molecule CCN(CC)CCCCNC(=O)C1CCN(CC2N=C(c3cc(OC)cc(OC)c3)OC2C)CC1 (stereo not drawn) is 6550
